Every entry's value here was drawn from ChEMBL document CHEMBL4622872.

# Assay Name: AUC (infinity) in Beagle dog at 1 mg/kg, iv or po by LC-MS/MS analysis
# Assay type: ADME, organism-based, Canis lupus familiaris
# Measurement Conditions: in vivo
Property Label: AUC(0-inf) (µM·h)
Your answer is read as µM·h, so omit the unit and give the number.

State the recorded AUC(0-inf) for this entry: Cn1nccc1[C@H]1CCCC[C@@H]1Oc1cc(F)c(S(=O)(=O)Nc2ccncn2)cc1Cl [DS-1971]
3.23

====

# Assay Name: Oral bioavailability in ddy mouse at 1 mg/kg by LC-MS/MS analysis
# Type: ADME, organism-based
# Measurement Conditions: in vivo
Property Label: bioavailability (%)
Please respond with the number in % and leave the unit unwritten.

For the molecule Cn1nccc1[C@H]1CCCC[C@@H]1Oc1cc(F)c(S(=O)(=O)Nc2ccncn2)cc1Cl [DS-1971] , what bioavailability is on record?
15

====

# Assay Name: Cmax in cynomolgus monkey at 1 mg/kg, iv or po by LC-MS/MS analysis
# Type: ADME, organism-based, Macaca fascicularis
# Measurement Conditions: in vivo
Property Label: Cmax
Note: a bare number is incomplete; add the unit.

I'd like to know its Cmax. The compound in question is Cn1nccc1[C@H]1CCCC[C@@H]1Oc1cc(F)c(S(=O)(=O)Nc2ccncn2)cc1Cl
1570 nM

====

# Assay Name: Clearance in Sprague-Dawley rat at 1 mg/kg, iv by LC-MS/MS analysis
# Format: ADME, organism-based
# Measurement Conditions: in vivo
Property Label: clearance

Recorded clearance of Cn1nccc1[C@H]1CCCC[C@@H]1Oc1cc(F)c(S(=O)(=O)Nc2ccncn2)cc1Cl [DS-1971] , please.
47 mL/min/kg

====

# Assay Name: Cmax in ddy mouse at 3 mg/kg, iv or po by LC-MS/MS analysis
# Format: ADME, organism-based
# Measurement Conditions: in vivo
Property Label: Cmax (nM)
// units = nM; emit number, no label

Report Cmax for Cn1nccc1[C@H]1CCCC[C@@H]1Oc1cc(F)c(S(=O)(=O)Nc2ccncn2)cc1Cl please.
464

====

# Assay Name: Half life in cynomolgus monkey at 1 mg/kg, iv or po by LC-MS/MS analysis
# Format: ADME, organism-based, Macaca fascicularis
# Measurement Conditions: in vivo
Property Label: half-life
Value and unit, in that order.

Can you share its half-life? I mean this compound: Cn1nccc1[C@H]1CCCC[C@@H]1Oc1cc(F)c(S(=O)(=O)Nc2ccncn2)cc1Cl
3.69 h

====

# Assay Name: Cmax in Sprague-Dawley rat at 1 mg/kg, iv or po by LC-MS/MS analysis
# Format: ADME, organism-based
# Measurement Conditions: in vivo
Property Label: Cmax (nM)
Output spec: scalar in nM, unitless text.

Entry Cn1nccc1[C@H]1CCCC[C@@H]1Oc1cc(F)c(S(=O)(=O)Nc2ccncn2)cc1Cl has what Cmax?
103

====

# Assay Name: Volume of distribution at steady state in ddy mouse at 3 mg/kg, iv by LC-MS/MS analysis
# Format: ADME, organism-based
# Measurement Conditions: in vivo, read-out: Vdss
Property Label: Vd (L/kg)
Express it in L/kg; write the number only.

Need Vd of Cn1nccc1[C@H]1CCCC[C@@H]1Oc1cc(F)c(S(=O)(=O)Nc2ccncn2)cc1Cl , thanks.
0.565

====

# Assay Name: Tmax in ddy mouse at 1 mg/kg, iv or po by LC-MS/MS analysis
# Type: ADME, organism-based
# Measurement Conditions: in vivo
Property Label: Tmax (min)
Give a bare numeral; the unit min is implied.

Can you share its Tmax? I mean this compound: Cn1nccc1[C@H]1CCCC[C@@H]1Oc1cc(F)c(S(=O)(=O)Nc2ccncn2)cc1Cl
5
